Data origin: paper PMC4552634

System: P. falciparum stage V gametocytes
Design: BacTiter-Glo ATP luminescence viability of purified stage V gametocytes in 384-well plates, per cent inhibition versus DMSO
Conditions Used: 48 h, 5 µM; inhibitor
About 3,200 (25%) of roughly 13,000 compounds showed an effect of 50% or more. The list shows a part of the results.
List of % Inhibition values.
Assay Readout: % Inhibition (%)

[[record]]
smiles_string = "CCCCN(CCCC)CCCCNc1c2ccccc2nc2ccccc12"
recorded_value = 102

[[record]]
smiles_string = "Cl.c1ccc2c(NCCOCCNc3c4ccccc4nc4ccccc34)c3ccccc3nc2c1"
recorded_value = 121.8

[[record]]
smiles_string = "CCCCN(CCCC)CCCCCCNc1c2ccccc2nc2ccccc12"
recorded_value = 114.2

[[record]]
smiles_string = "O=C(COC(=O)c1cccc(S(=O)(=O)N2CCc3ccccc32)c1)NNC(=O)c1cccs1"
recorded_value = 26.4

[[record]]
smiles_string = "CCN(CC)CCNc1ccnc2c3ccccc3n(C)c12"
recorded_value = 2.979

